Please respond with reported melting point for every item in the list.

Sample records with melting point:
| SUBSTANCE_SMILES | melting point |
| --- | --- |
| CNC(=O)C(=O)CCCCCCSc1nc(-c2ccccc2)cs1 | 107 to 108 °C |
| CNC(=O)C(=O)CCCCCCS(=O)(=O)c1ccc2ccccc2c1 | 108 to 109 °C |
| CC(=O)C(=O)CCCCCCOc1ccc(-c2ccccc2)cc1 | 110 to 111 °C |
| CNC(=O)C(=O)CCCCCCSc1ccc2ccccc2c1 | 94 to 95 °C |
| O=C(CCCCCCSc1ccc2ccccc2c1)c1ncco1 | 65 to 66 °C |

Consider the following items and state reported melting point for each.
1. CNC(=O)C(=O)CCCCCCc1csc(-c2ccccc2)n1
2. CNC(=O)C(=O)CCCCCCSc1ccc(-c2ccccc2)cc1
3. CNC(=O)C(=O)CCCCCO/N=C/c1ccc(-c2ccccc2)cc1
4. CNC(=O)C(=O)CCCCCCc1cnc(-c2ccccc2)o1
5. O=C(CCCCCCS(=O)(=O)c1ccccc1)c1ncco1

1. 70 to 72 °C
2. 131 to 132 °C
3. 86 to 87 °C
4. 78 to 80 °C
5. 55 to 56 °C
